Source: ChEMBL document CHEMBL1857833

Assay: DNDI: Cytotoxicity against L929 mouse fibroblasts, 72 hour.
Assay type: toxicity, cell-based
Conditions: mouse, L929 mouse fibroblasts
IC50 at 72 h strictly less than 2 µg/mL = Criterion met. Otherwise Criterion not met.

Example results:
MOLECULE: CC(C)(C)c1ccc(Oc2ncccc2/C(=N/O)Nc2cccc(F)c2)cc1
GROUP LABEL: Criterion not met

MOLECULE: Cc1cc(NCCN2CCCC2)n2nc(-c3cccc(F)c3)cc2n1
GROUP LABEL: Criterion not met

Query molecule follows.
[ask] Hello, is IC50 at 72 h of the following molecule strictly smaller than 2 µg/mL? `CC(C)(C)CNCc1coc(-c2ccc(OCC(C)(C)C)cc2)n1`
[reply] Criterion met

---

Test: in vitro
Settings: mouse, liver microsomes
Description: DNDI: in vitro intrinsic clearance in mouse liver microsomes at a concentration of 1uM
Please use T whenever microsomal CLint at 1 µM is not below 10 µL/min/mg, and F whenever it is.

The following compounds have reported results that may help.
COMPOUND: CCCCCC(C)NCc1coc(-c2ccc(OCCCC)cc2)n1 (stereo unspecified)
GROUP LABEL: T

COMPOUND: CCCCc1ccc(-c2nc(CNC3CC(C)CC(C)(C)C3)co2)cc1 (stereo unspecified)
GROUP LABEL: F

COMPOUND: COc1ccccc1CNC(CCc1ccccc1)c1nc(Cc2ccccc2)c(N2CCCCC2)o1 (stereo unspecified)
GROUP LABEL: T

COMPOUND: O/N=C(\Nc1ccccc1)c1ccccc1-c1ccccc1
GROUP LABEL: T

COMPOUND: COc1ccc(/C(CNC2CCCCC2)=N/O)cc1
GROUP LABEL: T

Now for another entry.
[ask] Form field: microsomal CLint at 1 µM at least 10 µL/min/mg? Entry: CCCCOc1ccc(-c2nc(CNC3CC(C)CC(C)(C)C3)co2)cc1 (stereo unspecified)
[reply] F

---

Assay: DNDI: Cytotoxicity against L929 mouse fibroblasts, 72 hour.
Type: toxicity, cell-based
Conditions: mouse, L929 mouse fibroblasts
So I've got a bunch of molecules here, and I need their log10(IC50 at 72 h) values.
In plain terms, each number is the log10 of measured IC50 at 72 h in µg/mL.

Below, 4 molecules whose answers are already recorded.
MOLECULE: Fc1ccc(-c2cc3nc(-c4ccccc4)cc(NC4CCNCC4)n3n2)cc1
VAL: 0.05

MOLECULE: CCCCCC(C)NCc1coc(-c2cc(F)ccc2F)n1 (stereo unspecified)
VAL: 1.12

MOLECULE: CCCCCC(C)NCc1coc(-c2ccc(Cl)c(Cl)c2)n1 (stereo unspecified)
VAL: 0.68

MOLECULE: CCCCCC(C)NCc1coc(-c2ccc(OC(C)CC)cc2)n1 (stereo unspecified)
VAL: 0.19

Please examine the following record next.
[ask] Look at this molecule and give its reported log10(IC50 at 72 h). `CC1(C)[C@H]2CC[C@@H](CNCc3ccc(-c4ccccc4)s3)[C@@H]1C2`
[reply] 0.82

---

Assay: DNDI: Cytotoxicity against L929 mouse fibroblasts, 72 hour.
Format: toxicity, cell-based
Conditions: mouse, L929 mouse fibroblasts
Binary label based on IC50 at 72 h with cut-off 30 µg/mL: below gives condition met, not below gives condition not met.

MOLECULE: CCCCc1ccc(-c2nc(CNCCN(C)C)co2)cc1
GROUP LABEL: condition met

Moving on to another molecule below.
[ask] Is it true that IC50 at 72 h reported for `Clc1ccc(-c2nc(CN[C@]34C[C@H]5C[C@H](C[C@H](C5)C3)C4)co2)cc1` is less than 30 µg/mL?
[reply] condition not met
